# Tested on: HLA-A*2402 transgenic mice
# protocol.summary: CTL induction in vivo in HLA-A*2402 transgenic mice (immunogenicity, Cr51 cytotoxic assay)
# Set-up: key: (−) means that none of the mice vaccinated with the corresponding native peptides develops a specific immune response; (+) that less to 50% of vaccinated mice responded; (++) that more that 50% responded
# measurement.context: Table 5; mice vaccinated with 100 μg native peptide in IFA; share of mice with specific immune response
measure: Immunogenicity

entry.sequence | study.target | test.value
PYVSRLLGI (Cryptic HLA-A2402 restricted peptide) [Her2/neu 780, native cryptic HLA-A*2402 restricted peptide] | HLA-A*2402 transgenic mice | −
PYGVLLKTH (Cryptic HLA-A2402 restricted peptide) [TERT 403, native cryptic HLA-A*2402 restricted peptide] | HLA-A*2402 transgenic mice | −
TYLVQVQAL (Cryptic HLA-A2402 restricted peptide) [EphA2 502, native cryptic HLA-A*2402 restricted peptide] | HLA-A*2402 transgenic mice | −
